Below, each entry is listed with its recorded DC50.
Target: SHP2 protein (Homo sapiens)
Sequence (Q06124 whole entry): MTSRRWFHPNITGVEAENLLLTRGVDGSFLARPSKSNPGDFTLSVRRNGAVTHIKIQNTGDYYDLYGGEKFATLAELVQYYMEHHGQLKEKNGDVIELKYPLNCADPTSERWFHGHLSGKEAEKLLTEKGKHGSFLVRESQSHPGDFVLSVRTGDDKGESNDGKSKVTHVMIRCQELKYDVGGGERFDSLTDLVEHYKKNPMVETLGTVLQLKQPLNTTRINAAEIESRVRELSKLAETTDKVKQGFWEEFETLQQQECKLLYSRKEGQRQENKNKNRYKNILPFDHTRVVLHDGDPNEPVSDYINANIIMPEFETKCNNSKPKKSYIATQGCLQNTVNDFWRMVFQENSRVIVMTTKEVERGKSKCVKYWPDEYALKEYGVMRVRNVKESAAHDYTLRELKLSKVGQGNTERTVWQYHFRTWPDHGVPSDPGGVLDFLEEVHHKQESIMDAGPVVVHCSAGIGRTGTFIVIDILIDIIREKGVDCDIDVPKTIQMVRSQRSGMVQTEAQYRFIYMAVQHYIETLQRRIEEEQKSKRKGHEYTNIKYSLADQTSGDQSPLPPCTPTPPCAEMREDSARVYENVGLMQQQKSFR
Assay: Degradation activity on SHP2 protein in MIA Paca-2 cells (Western blot, DC50)
Type: cell-based
Set-up: endogenous in cells; host or cells: MIA Paca-2 cells
Conditions: read-out: Degradation activity for differenct cell lines MIA Paca-2 (DC50)
Counter-ions that a name gives are not always drawn.

INSERT INTO results (compound, system, endpoint_value) VALUES
  ('CC1(N)CCN(c2cnc(Sc3cccc(NC(=O)c4ccc(N5CCC(N6CC=C(c7ncc(C(=O)NCc8ccc9c(c8)CN(C8CCC(=O)NC8=O)C9=O)cc7Cl)CC6)CC5)cc4)c3)cn2)CC1 (centres unmarked) [Compound 365]', 'SHP2 protein (Homo sapiens)', '100 to 1000 nM');

Briefly, DC50 measured for CC(=O)NC1(C)CCN(c2cnc(Sc3cccc(NC(=O)c4ccc(N5CCC(N6CC=C(c7ccc(C(=O)NCc8ccc9c(c8)CN(C8CCC(=O)NC8=O)C9=O)nc7)CC6)CC5)c(F)c4)c3)cn2)CC1 (centres unmarked) [Compound 425] : > 1000 nM

Value of DC50 reported for the compound C[C@@H]1OCC2(CCN(c3cnc(Sc4cccc(NC(=O)c5ccc(N6CCC(N7CC=C(c8ccc(C(=O)NCc9ccc%10c(c9)CN(C9CCC(=O)NC9=O)C%10=O)nn8)CC7)CC6)c(F)c5)c4)cn3)CC2)[C@@H]1N (some centres unmarked) [Compound 519, hydrochloride] is < 100 nM

Summary for this compound, Cc1cc(N2CCC3(CN(CCCCCCC(=O)Nc4cccc(Sc5cnc(N6CCC(N)(CO)CC6)cn5)c4)C3)C2)cnc1C(=O)NCc1ccc2c(c1)CN(C1CCC(=O)NC1=O)C2=O (centres unmarked) [Compound 208] : DC50 is > 1000 nM

Form: compound = Cc1cc(C(=O)NCc2ccc3c(c2)CN(C2CCC(=O)NC2=O)C3=O)ncc1C1=CCN(C2CCN(c3ccc(C(=O)Nc4cccc(Sc5cnc(N6CCC(C)(N)CC6)cn5)c4)cc3C)CC2)CC1 (centres unmarked) [Compound 456] ; DC50 = 100 to 1000 nM

====

Measured DC50 by item
Molecular target: SHP2 protein (Homo sapiens)
Assay: Degradation activity on SHP2 protein in MIA Paca-2 cells (Western blot, DC50)
Assay type: cell-based
Parameters: endogenous in cells; host or cells: MIA Paca-2 cells
Details: read-out: Degradation activity for differenct cell lines MIA Paca-2 (DC50)

Here are 2 compounds together with their reported answers.
INSERT INTO assay_data (compound, readout_type, endpoint_value) VALUES
  ('Cc1ncsc1-c1ccc([C@H](C)NC(=O)[C@@H]2C[C@@H](O)CN2C(=O)[C@@H](NC(=O)c2ccc(N3CCC4(CN(CCCCCCCC(=O)Nc5cccc(Sc6cnc(N7CCC(C)(N)CC7)cn6)c5)C4)C3)nn2)C(C)(C)C)cc1', 'DC50', '100 to 1000 nM'),
  ('CC1(N)CCN(c2cnc(Sc3cccc(NC(=O)c4ccc(N5CCC(N6CCC(c7ccc(C(=O)NCc8ccc9c(c8)CN(C8CCC(=O)NC8=O)C9=O)cc7)C(F)C6)CC5)c(F)c4)c3)cn2)CC1 (stereo not shown)', 'DC50', '< 100 nM');

Briefly, DC50 measured for Cc1cc(C(=O)Nc2cccc(Sc3cnc(N4CCC(C)(N)CC4)cn3)c2)ccc1N1CCC(N2CCN(c3nnc(C(=O)NCc4ccc5c(c4)CN(C4CCC(=O)NC4=O)C5=O)cc3Cl)CC2)CC1 (stereo not shown) : < 100 nM

get_value(item= C[C@@H]1OCC2(CCN(c3cnc(Sc4cccc(NC(=O)c5ccc(N6CCC(N7CC=C(c8ccc(C(=O)NCc9ccc%10c(c9)CN(C9CCC(=O)NC9=O)C%10=O)nn8)CC7)C6)cc5)c4)cn3)CC2)[C@@H]1N (stereo partly shown) , readout=DC50) returns < 100 nM

====

Readings of DC50 for the listed compounds
Molecular target: SHP2 protein (Homo sapiens)
Experiment: Degradation activity on SHP2 protein in MV-411 cells (Western blot, DC50)
Type: cell-based
Set-up: endogenous in cells
Details: MV411 cells, 24 hours, read-out: Degradation activity for differenct cell lines MV411 (DC50)

Guide cases for DC50, answers given:
INSERT INTO assay_data (compound, readout_type, endpoint_value) VALUES
  ('CC1(N)CCN(c2cnc(Sc3cccc(NC(=O)CCCCCCN4CC5(CCN(C6CCC(C(=O)NCc7ccc8c(c7)CN(C7CCC(=O)NC7=O)C8=O)CC6)C5)C4)c3)cn2)CC1 (stereo not shown)', 'DC50', '100 to 1000 nM'),
  ('Cc1ncsc1-c1ccc([C@H](C)NC(=O)[C@@H]2C[C@@H](O)CN2C(=O)[C@@H](NC(=O)CCCCCCCCN2CCN(C(=O)CCC(=O)Nc3cccc(Sc4cnc(N5CCC(C)(N)CC5)cn4)c3)CC2)C(C)(C)C)cc1', 'DC50', '< 100 nM'),
  ('C[C@@H]1OCC2(CCN(c3cnc(Sc4cccc(NC(=O)CCN5CC6(CCN(c7ccc(COc8cccc9c8CN(C8CCC(=O)NC8=O)C9=O)nn7)C6)C5)c4)cn3)CC2)[C@@H]1N (stereo partly shown)', 'DC50', '< 100 nM');

Param item: CC1(N)CCN(c2cnc(Sc3cccc(NC(=O)CCCCCCCCN4C5CCC4CN(c4ccc(C(=O)N6CCN(c7ccc8c(c7)C(=O)N(C7CCC(=O)NC7=O)C8=O)CC6)nn4)C5)c3)cn2)CC1 (stereo not shown) ; param system: SHP2 protein (Homo sapiens); output DC50: < 100 nM

The reported DC50 value, SHP2 protein (Homo sapiens), for CC1(N)CCN(c2cnc(Sc3cccc(NC(=O)COCCOCCOCCOCC(=O)NCc4ccc5c(c4)CN(C4CCC(=O)NC4=O)C5=O)c3)cn2)CC1 (stereo not shown) reads 100 to 1000 nM

Summary: NC1(CF)CCN(c2cnc(Sc3ccc(NC(=O)COCCCCCN4CC5(CCN(c6ccc(C(=O)NCc7ccc8c(c7)CN(C7CCC(=O)NC7=O)C8=O)nn6)C5)C4)cc3)cn2)CC1 (stereo not shown) , SHP2 protein (Homo sapiens), DC50 = 100 to 1000 nM

GET /values?item= "Cc1ncsc1-c1ccc([C@H](C)NC(=O)[C@@H]2C[C@@H](O)CN2C(=O)[C@@H](NC(=O)c2cnc(N3CCC4(CN(CCCCCCC(=O)Nc5cccc(Sc6cnc(N7CCC(C)(N)CC7)cn6)c5)C4)C3)nc2)C(C)(C)C)cc1" &system= SHP2 protein (Homo sapiens) returns DC50: < 100 nM

Item NC1(CO)CCN(c2cnc(Sc3cccc(NC(=O)CCCCCCN4CC5(CCN(c6ccc(C(=O)NCc7ccc8c(c7)CN(C7CCC(=O)NC7=O)C8=O)nn6)C5)C4)c3)cn2)CC1 (stereo not shown) was tested on SHP2 protein (Homo sapiens); the reported DC50 is < 100 nM

The reported SHP2 protein (Homo sapiens) DC50 of "Cc1ncsc1-c1ccc([C@H](C)NC(=O)[C@@H]2C[C@@H](O)CN2C(=O)[C@@H](NC(=O)c2cnc(N3CC[C@@H](OCCCCCCCC(=O)Nc4cccc(Sc5cnc(N6CCC(C)(N)CC6)cn5)c4)C3)nc2)C(C)(C)C)cc1" is < 100 nM

Given the compound CC1(N)CCN(c2cnc(Sc3cccc(NC(=O)CCCCCOc4ccc(C5CCC(C(=O)NCc6ccc7c(c6)CN(C6CCC(=O)NC6=O)C7=O)CC5)cc4)c3)cn2)CC1 (stereo not shown) [Compound 192] and test system SHP2 protein (Homo sapiens), the measured DC50 is < 100 nM

Tested system SHP2 protein (Homo sapiens); DC50 recorded for Cc1ncsc1-c1ccc([C@H](C)NC(=O)[C@@H]2C[C@@H](O)CN2C(=O)[C@@H](NC(=O)CCCCCCCCN2CCN(C(=O)C3CC3C(=O)Nc3cccc(Sc4cnc(N5CCC(C)(N)CC5)cn4)c3)CC2)C(C)(C)C)cc1 (stereo partly shown) was < 100 nM

Considering "Cc1ncsc1-c1ccc([C@H](C)NC(=O)[C@@H]2C[C@@H](O)CN2C(=O)[C@@H](NC(=O)CCCCCCCCCCCCCCC(=O)Nc2cccc(Sc3cnc(N4CCC(C)(N)CC4)cn3)c2)C(C)(C)C)cc1" , its DC50 with SHP2 protein (Homo sapiens) was recorded as < 100 nM

Noted DC50 for CC1(N)CCN(c2cnc(Sc3cccc(NC(=O)CCCCCCC(=O)N4CC5(CCN(c6ccc(C(=O)NCc7ccc8c(c7)CN(C7CCC(=O)NC7=O)C8=O)nn6)C5)C4)c3)cn2)CC1 (stereo not shown) , tested on SHP2 protein (Homo sapiens): 100 to 1000 nM

Form field DC50 for item CC1(N)CCN(c2cnc(Sc3cccc(NC(=O)CCCCCCN4CC5(CCN(c6ncc(C(=O)NCc7ccc8c(c7)CN(C7CCC(=O)NC7=O)C8=O)cc6Cl)C5)C4)c3)cn2)CC1 (stereo not shown) on SHP2 protein (Homo sapiens): < 100 nM

Measured DC50 (SHP2 protein (Homo sapiens)), entry CC1(N)CCN(c2cnc(Sc3cccc(NC(=O)CCC(=O)NCCOCCOCCOCC(=O)NCc4ccc5c(c4)CN(C4CCC(=O)NC4=O)C5=O)c3)cn2)CC1 (stereo not shown) : > 1000 nM

Item CC1(N)CCN(c2cnc(Sc3cccc(NC(=O)CCCCCCCO[C@H]4CCN(Cc5ccc(COc6cccc7c6CN(C6CCC(=O)NC6=O)C7=O)cc5)C4)c3)cn2)CC1 (stereo partly shown) was tested on SHP2 protein (Homo sapiens); the reported DC50 is < 100 nM
